# Test system: CWR22R
# assay.comment: cells
# assay.setup: Homo sapiens, 22Rv1, 72 h
# Description: Anticancer activity against human 22Rv1 cells assessed as inhibition of cell proliferation incubated for 72 hrs by MTT assay
measured.attribute: IC50 (µM)

C=CC(=O)N1CCC[C@@H](n2nc(-c3ccc(Oc4ccccc4)cc3)c3c(N)ncnc32)C1 [IBRUTINIB] : 26.7
C=CS(=O)(=O)N1CCC[C@@H](Nc2nc(N)nc(Nc3cccc(OCc4ccccc4)c3)n2)C1 : 23.7
C=CS(=O)(=O)N1CCC[C@@H](Nc2nc(N)nc(Nc3cccc(Oc4ccccc4)c3)n2)C1 : 13.4

----------
# target: Cytochrome P450 2C19 (Homo sapiens, UniProt P33261)
# Sequence (P33261 whole entry): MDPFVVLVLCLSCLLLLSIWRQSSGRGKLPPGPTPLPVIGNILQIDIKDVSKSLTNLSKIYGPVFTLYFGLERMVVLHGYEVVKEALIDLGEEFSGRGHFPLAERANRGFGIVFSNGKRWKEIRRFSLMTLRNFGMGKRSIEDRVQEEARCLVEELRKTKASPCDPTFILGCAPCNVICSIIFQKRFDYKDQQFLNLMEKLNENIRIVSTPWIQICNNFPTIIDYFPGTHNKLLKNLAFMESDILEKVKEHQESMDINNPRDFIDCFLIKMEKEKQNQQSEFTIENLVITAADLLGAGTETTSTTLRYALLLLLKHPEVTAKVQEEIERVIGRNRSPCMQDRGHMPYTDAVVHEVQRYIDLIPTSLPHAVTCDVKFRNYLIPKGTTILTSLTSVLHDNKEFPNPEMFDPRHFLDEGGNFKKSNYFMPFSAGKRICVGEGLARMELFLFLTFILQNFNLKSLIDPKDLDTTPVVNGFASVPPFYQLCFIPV
measured.attribute: IC50

C=CS(=O)(=O)N1CCC[C@@H](Nc2nc(N)nc(Nc3cccc(Oc4ccccc4)c3)n2)C1 : > 100 µM

Source of measurements: ChEMBL document CHEMBL6153141
